Reported pKd by item:
subjectOfTest: WT RBD (SARS-CoV-2 Wuhan-Hu-1 spike receptor binding domain) (SARS-CoV-2 (Wuhan-Hu-1), UniProt P0DTC2)
method: BLI
conditionSet: both partners purified
pKd: −log10 of the molar value.

binder	pKd
C1047 (antibody, V domains shown, source: 293-6E cells, transfected, purified (Protein G Sepharose)) VH: EVQLVQSGAEVKKPGESLKISCKGSGYSFISYWIVWVRQMPGKGLEWIGIIYPGDSDTIYSPSFQGQVTLSADKSISTAYLQWSSLKASDTAIYYCAKMVTSGTSYYETRGYASSGPFDNWGQGTLVTVSS VL: DIQLTQSPSSLSASVGDRVTITCRASQGISSALAWYQQKPGKAPKLLIYDASSLESGVPSRFSGSGSGTDFTLTISSLQPEDFATYYCQQSDNFGPGTKVDI	8.30
C1002 (antibody, V domains shown, source: 293-6E cells, transfected, purified (Protein G Sepharose)) VH: EVQLVESGGGLVQPGGSLRLSCAASEFIVSSNYMTWVRQAPGKGLEWVSIMYPGGSTFYADSVKGRFTISRDNSKNTLYLQINRLRAEDTAVYYCARDIAGRLDYWGQGTLVTVSS VL: DIQMTQSPSSLSASVGDRVTITCQASQDINNYLNWYQQKPGKAPKLLIYDASNLETGVPSRFSGSGSGTDFSFTISSLQPEDIATYYCQQYDNLSRLTFGGGTKVEIK	9.36
B2006 (antibody, V domains shown, source: 293-6E cells, transfected, purified (Protein G Sepharose)) VH: EVQLVQSGAEVKKPGESLKISCKGFGSSFTNYWIGWVRQMPGKGLEWMGSVYAGDSDTRYSPSFQGQVTVSADKSITTAYLQWTSLKASDTAMYFCARASQGNYFDFWGQGTLVTVSS VL: DIQMTQSPSTLSASVGDRVTITCRASQSISRWLAWYQQKPGKAPKLLIYDASILESGVPSRFSGSGSGTDFTLTISSLQPDDYATYYCQQFYSNLYTFGQGTKLEIK	9.23
